Below, each of the compounds is paired with its reported Ki value.
target.or.system: FXIIa (Homo sapiens, UniProt P00748)
Sequence (P00748 373-615 limits assumed): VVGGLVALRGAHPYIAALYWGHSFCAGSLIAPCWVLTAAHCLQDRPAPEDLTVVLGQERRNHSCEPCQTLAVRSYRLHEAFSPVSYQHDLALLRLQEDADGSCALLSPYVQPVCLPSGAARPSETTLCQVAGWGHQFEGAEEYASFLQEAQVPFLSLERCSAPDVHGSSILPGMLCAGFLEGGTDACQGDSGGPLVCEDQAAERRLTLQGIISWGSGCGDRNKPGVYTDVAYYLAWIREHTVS
Sequence (P00748 20-372 partner limits assumed): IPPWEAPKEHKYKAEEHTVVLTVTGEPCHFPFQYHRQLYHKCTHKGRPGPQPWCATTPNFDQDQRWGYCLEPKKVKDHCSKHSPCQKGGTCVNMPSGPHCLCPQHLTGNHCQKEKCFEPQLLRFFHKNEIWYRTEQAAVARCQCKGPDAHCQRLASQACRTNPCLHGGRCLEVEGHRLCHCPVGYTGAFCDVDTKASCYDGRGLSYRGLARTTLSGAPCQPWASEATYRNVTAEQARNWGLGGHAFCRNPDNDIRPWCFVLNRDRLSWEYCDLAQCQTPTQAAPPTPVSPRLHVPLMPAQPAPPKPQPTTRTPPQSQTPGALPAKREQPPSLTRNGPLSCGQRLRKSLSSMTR

Some compounds with known Ki results, for comparison:
Sample Cc1ccc(C[C@@H]2C[C@@H](C(=O)NCc3ccc4c(cnn4C)c3)N(C(=O)[C@H]3[C@@H](C(=O)N4CCCC4)CCCN3C)C2)cc1 , system: FXIIa (Homo sapiens, UniProt P00748). Its Ki is < 200 nM

Form field Ki for item Cc1ccc(C[C@@H]2C[C@@H](C(=O)NCc3ccc4c(cnn4C)c3)N(C(=O)[C@@H]3NCCC[C@@H]3C(=O)N3CCCCC3)C2)cc1 on FXIIa (Homo sapiens, UniProt P00748): < 200 nM

Record for Cc1ccc(C[C@@H]2C[C@@H](C(=O)NCc3ccc4c(cnn4C)c3)N(C(=O)[C@@H]3NCCC[C@@H]3C(=O)N3C4CCC3COC4)C2)cc1 under target or system FXIIa (Homo sapiens, UniProt P00748): Ki reported as 200 to 800 nM

Further cases:
Item Cn1ncc2cc(CNC(=O)[C@@H]3C[C@@H](Cc4cc(C5CC5)on4)CN3C(=O)[C@@H]3NCCC[C@@H]3C(=O)N3CCC[C@@H]3C(F)(F)F)ccc21 ; assay system FXIIa (Homo sapiens, UniProt P00748); Ki reported as < 200 nM
